# Test system: HEK-293T
# Measurement Protocol: Incucyte cell viability with HEK293T; further: filed as whole numbers so only -1 and 0 and 1 occur
# Assay type: toxicity, cell-based
# Measurement Context: human, 12 h, 10 µM, compound concentration 10 uM, replicate number 1, timepoint 12 hours
# reported Growth Rate; entries follow
Respond using a number only.

Answered cases to consult:
• Cl.Cl.NC1(c2ccc(-c3nc4ccn5c(=O)[nH]nc5c4cc3-c3ccccc3)cc2)CCC1 = 0
• CCNC(=O)c1cc2c(N3CCOC[C@@H]3C)ccnc2[nH]1 = 0
• Cc1nc2sccn2c(=O)c1CCN1CCC(=C(c2ccc(F)cc2)c2ccc(F)cc2)CC1 = 1
• CNC(=O)c1cc(Oc2ccc(NC(=O)Nc3cc(C(C)(C)C)nn3-c3ccc4ncccc4c3)c(F)c2)ccn1 = 0

Now for the molecule whose Growth Rate we want.
## Input Quick check: Growth Rate of CN(C(=O)Cc1ccc(Cl)c(Cl)c1)C(CN1CCCC1)c1cccc(OCC(=O)O)c1.Cl (stereo not given) ?
## Output 1
